# ASSAY_TARGET: binding partner of C5A (XPA23)
# PROTOCOL_DETAILS: Biacore K-off
So basically: fold difference in affinity vs original at 0.9 fold or higher? That is 1.0. Lower than 0.9 fold? That is 0.0.

Solved entries:
BINDER	CATEGORY_LABEL
C5A (XPA23) VL A91H (antibody, V domains shown) VH: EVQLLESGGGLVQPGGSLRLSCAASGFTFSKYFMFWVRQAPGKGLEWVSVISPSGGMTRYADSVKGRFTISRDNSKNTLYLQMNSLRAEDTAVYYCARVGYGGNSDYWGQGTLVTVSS VL: DIQMTQSPSSVSASVGDRLTIICRASQDINRWLAWYQQTPGNAPKLLIHSATSLQSGVPSRFSGSGSGTDFTLTINSLQPEDFATYYCQQHDSFPLTFGGGTKVEIK	1.0
C5A (XPA23) VL Q27S (antibody, V domains shown) VH: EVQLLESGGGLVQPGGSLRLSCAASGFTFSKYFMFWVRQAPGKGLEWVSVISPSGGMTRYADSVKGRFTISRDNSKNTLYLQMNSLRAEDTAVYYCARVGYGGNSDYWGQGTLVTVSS VL: DIQMTQSPSSVSASVGDRLTIICRASSDINRWLAWYQQTPGNAPKLLIHSATSLQSGVPSRFSGSGSGTDFTLTINSLQPEDFATYYCQQADSFPLTFGGGTKVEIK	1.0
C5A (XPA23) VL Q27L (antibody, V domains shown) VH: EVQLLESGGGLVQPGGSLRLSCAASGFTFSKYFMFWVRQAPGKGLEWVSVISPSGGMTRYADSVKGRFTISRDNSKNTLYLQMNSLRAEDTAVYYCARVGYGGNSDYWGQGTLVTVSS VL: DIQMTQSPSSVSASVGDRLTIICRASLDINRWLAWYQQTPGNAPKLLIHSATSLQSGVPSRFSGSGSGTDFTLTINSLQPEDFATYYCQQADSFPLTFGGGTKVEIK	0.0

q: Dear colleague, could you confirm whether C5A (XPA23) VL D92H (antibody, V domains shown) VH: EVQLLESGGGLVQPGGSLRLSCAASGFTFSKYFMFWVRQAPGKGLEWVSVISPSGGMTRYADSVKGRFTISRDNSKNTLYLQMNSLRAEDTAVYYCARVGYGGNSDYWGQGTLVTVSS VL: DIQMTQSPSSVSASVGDRLTIICRASQDINRWLAWYQQTPGNAPKLLIHSATSLQSGVPSRFSGSGSGTDFTLTINSLQPEDFATYYCQQAHSFPLTFGGGTKVEIK has fold difference in affinity vs original at or above 0.9 fold?
a: 0.0
